# assay-remarks: Selectivity index, ratio of CC50 for MDCK cells to EC50 for Influenza A virus (A/Texas/04/2009 (H1N1)) infected in MDCK cells
# Format: toxicity, cell-based
# reported-conditions: dog, read-out: Ratio CC50/EC50
reported-endpoint: selectivity ratio
Note: the reply should be a number with no unit written.

Reported selectivity ratio ( Cc1cc(OCc2nnc(SC3CCCC3)n2-c2cccnc2)ccc1-c1ccc(S(C)(=O)=O)cc1 ) = 50

====

# target-system: Transitional endoplasmic reticulum ATPase (Homo sapiens, UniProt P55072)
# Sequence (P55072 whole entry): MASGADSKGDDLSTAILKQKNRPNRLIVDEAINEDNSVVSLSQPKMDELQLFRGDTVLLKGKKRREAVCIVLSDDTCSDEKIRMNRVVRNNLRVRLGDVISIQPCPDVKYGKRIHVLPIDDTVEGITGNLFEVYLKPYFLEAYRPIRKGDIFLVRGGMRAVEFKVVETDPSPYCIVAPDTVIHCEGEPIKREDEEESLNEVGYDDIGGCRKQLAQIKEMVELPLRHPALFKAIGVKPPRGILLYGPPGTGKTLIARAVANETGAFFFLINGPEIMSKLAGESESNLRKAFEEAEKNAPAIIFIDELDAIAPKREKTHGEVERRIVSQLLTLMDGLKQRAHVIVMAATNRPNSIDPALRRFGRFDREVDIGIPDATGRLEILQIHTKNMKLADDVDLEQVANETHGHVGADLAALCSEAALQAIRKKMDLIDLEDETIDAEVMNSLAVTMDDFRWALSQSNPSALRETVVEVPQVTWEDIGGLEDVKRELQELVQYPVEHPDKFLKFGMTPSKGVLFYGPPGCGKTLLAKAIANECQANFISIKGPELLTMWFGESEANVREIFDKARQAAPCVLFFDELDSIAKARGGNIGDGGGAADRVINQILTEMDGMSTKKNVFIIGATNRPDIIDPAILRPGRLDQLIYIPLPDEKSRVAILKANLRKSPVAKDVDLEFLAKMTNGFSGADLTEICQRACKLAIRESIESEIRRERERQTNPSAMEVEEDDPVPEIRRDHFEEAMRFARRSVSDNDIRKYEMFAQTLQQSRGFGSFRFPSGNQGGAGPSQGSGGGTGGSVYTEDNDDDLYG
# assay-remarks: Inhibition of p97 (unknown origin) in presence of ATP by Biomol Green Reagent based assay
reported-endpoint: IC50 (nM)
All answers are understood in nM, so give the number only.

Reported IC50 ( Cc1cc(OCc2cnc(SC3CCCC3)n2-c2cccnc2)ccc1C#CCCNC(C)C ) = 7

====

# assay-remarks: Selectivity index, ratio of CC50 for MDCK cells to EC50 for Influenza A virus (A/Denmark/528/2009 (H1N1)) infected in MDCK cells
# Format: toxicity, cell-based
# reported-conditions: dog, read-out: Ratio CC50/EC50
reported-endpoint: selectivity ratio
Note: the reply should be a number with no unit written.

Reported selectivity ratio ( Cc1cc(OCc2nnc(SC3CCCC3)n2-c2cccnc2)ccc1-c1ccc(S(C)(=O)=O)cc1 ) = 50

Just for reference, ChEMBL document CHEMBL5096176 is where these values come from.
